tested on: Calf thymus DNA; test: Binding affinity to calf thymus DNA assessed as ratio of final absorbance area to the absorbance at 100 uM after 24 hrs by UV spectrophotometer analysis relative to control; format: nucleic-acid assay; settings: Bos taurus
Assign labels as follows, please: class 1 for Ratio below 0.3; class 0 for Ratio equal to or exceeding 0.3.

Observe how each entry below is paired with its result.
[
  {
    "mol_smiles": "CC[n+]1c(-c2ccccc2)c2cc(N)ccc2c2ccc(N)cc21",
    "system_name": "Calf thymus DNA",
    "answer_label": "class 0"
  },
  {
    "mol_smiles": "COc1ccc2c(c1)[n+]([O-])c1c3ccccc3ccc1[n+]2[O-]",
    "system_name": "Calf thymus DNA",
    "answer_label": "class 0"
  },
  {
    "mol_smiles": "CCOc1ccc(-c2nc3cc(-c4nc5cc(N6CCN(C)CC6)ccc5[nH]4)ccc3[nH]2)cc1",
    "system_name": "Calf thymus DNA",
    "answer_label": "class 0"
  },
  {
    "mol_smiles": "[O-][n+]1c2ccccc2[n+]([O-])c2c3ccccc3ccc21",
    "system_name": "Calf thymus DNA",
    "answer_label": "class 0"
  }
]

Record `[O-][n+]1c2ccccc2[n+]([O-])c2c3ccccc3c(O)cc21` : is its Ratio strictly below 0.3?
class 1

Query `O=C1c2c(O)ccc(O)c2C(=O)c2c(NCCNCCO)ccc(NCCNCCO)c21` next
class 1

----------
test: Cytotoxicity against chinese hamster V79 cells assessed as survival fraction under hypoxic condition at 20 uM after 7 days by crystal violet staining relative to control; type: cell-based, Cricetulus griseus; conditions: read-out: Activity
Listed next: entries and their corresponding viability at 168 h, 20 µM.
# number only, unit % dropped from output

What value of measured viability at 168 h, 20 µM is listed for `[O-][n+]1c2ccccc2[n+]([O-])c2c3ccccc3c(O)cc21` ?
93

Next record, please: `COc1ccc2c(c1)[n+]([O-])c1c3ccccc3ccc1[n+]2[O-]`
44

Also check `[O-][n+]1c2ccccc2[n+]([O-])c2c3ccccc3ccc21`
45

----------
experiment: Cytotoxicity against chinese hamster V79 cells assessed as survival fraction under normoxic condition at 20 uM after 7 days by crystal violet staining relative to control; format: cell-based, Cricetulus griseus; settings: read-out: Activity
Measured viability at 168 h, 20 µM accompanies every entry in the list below.
Respond numerically; units are % and should not be typed.

[
  {
    "mol_smiles": "[O-][n+]1c2ccccc2[n+]([O-])c2c3ccccc3ccc21",
    "unit_abbrev": "%",
    "viability at 168 h, 20 µM": 40
  },
  {
    "mol_smiles": "[O-][n+]1c2ccccc2[n+]([O-])c2c3ccccc3c(O)cc21",
    "unit_abbrev": "%",
    "viability at 168 h, 20 µM": 100
  }
]

Param item = `COc1ccc2c(c1)[n+]([O-])c1c3ccccc3ccc1[n+]2[O-]` ; retrieve measured viability at 168 h, 20 µM.
88
